These entries and their values trace back to patent US20150037348A1.

# ASSAYED_TARGET: T1, recombinant human IL-12 (rhIL-12) (human, UniProt P29459 23-219; P29460 23-328)
# T1 sequence (looked up) 1: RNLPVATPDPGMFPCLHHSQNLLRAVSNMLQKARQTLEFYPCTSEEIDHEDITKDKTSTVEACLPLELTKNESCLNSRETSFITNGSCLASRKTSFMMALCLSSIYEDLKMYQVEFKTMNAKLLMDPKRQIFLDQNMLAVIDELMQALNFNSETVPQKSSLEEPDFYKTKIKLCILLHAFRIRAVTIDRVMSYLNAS
# T1 sequence (looked up) 2: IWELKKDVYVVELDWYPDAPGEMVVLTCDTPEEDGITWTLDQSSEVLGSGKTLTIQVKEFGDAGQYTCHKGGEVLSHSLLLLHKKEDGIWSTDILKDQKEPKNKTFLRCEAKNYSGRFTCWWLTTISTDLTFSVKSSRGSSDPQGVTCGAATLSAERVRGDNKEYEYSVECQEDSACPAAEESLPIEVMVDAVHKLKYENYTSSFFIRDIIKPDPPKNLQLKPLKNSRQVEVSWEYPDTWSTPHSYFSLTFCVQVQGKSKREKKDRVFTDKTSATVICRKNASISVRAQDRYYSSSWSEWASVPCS
# MEASUREMENT_DESCRIPTION: cell-based or functional assay
PROPERTY_LABEL: PHA assay IC50 (M) p70:p40 1:50
Quick note: give the figure in M, leave out the unit.

Inquiry: Look up PHA assay IC50 (M) p70:p40 1:50 of 149-5 (scFv) QVQLVQSGGGVVQPGRSLRLSCAASGFTFSSYGMHWVRQAPGKGLEWVAFIRYDGSNKYYADSVKGRFTISRDNSKNTLYLQMKSLRAEDTAVYYCTTHGSHDTWGQGTMVTVSSSYVLTQPPSVSGTPGQRVTISCSGGRSNIGSNTVKWYQQLPGTAPKLLIYGNDQRPSGVPDRFSGSKSGTSASLAITGVQAEDEADYYCQSYDSSLWGTRVFGTGTKVTVLG and report it.
Reply text: 4e-09
